# System: MDA-N
# assay_protocol: NCI tumour cell line growth inhibition, 48 h
Provide the reported TGI of each item.

[
  {
    "compound": "COc1c2occc2cc2ccc(=O)oc12",
    "TGI": "> 100 µM"
  },
  {
    "compound": "COc1ccc(Br)c(C=Nc2cccc3cc(OC)c(OC)cc23)c1",
    "TGI": "> 41.4 µM"
  },
  {
    "compound": "CCCCCCC/C=C1\\CCC(CN(C)C)C1=O (stereo unspecified)",
    "TGI": "26.8 µM"
  },
  {
    "compound": "CC1OC(OC2C[C@](O)(C(=O)CBr)Cc3c(O)c4c(c(O)c32)C(=O)c2ccccc2C4=O)C(F)C(O)C1O (stereo partly specified)",
    "TGI": "44.7 µM"
  },
  {
    "compound": "C=CCN(c1cc(OC)c2c(c1[N+](=O)[O-])C(C)(SC)C(=O)N2)S(C)(=O)=O (stereo unspecified)",
    "TGI": "> 100 µM"
  }
]

Give TGI for all compounds that follow.
1. CC1(C)OC2COC(c3[nH]nc4c(=O)[nH]c(=O)[nH]c34)C2O1 (stereo unspecified)
2. COc1ccc2c(c1)C(=O)[C@@](Nc1ccc(C=O)cc1)(OC)[C@@](OC)(c1ccc([N+](=O)[O-])cc1)O2
3. C[C@]12CC/C(=N\O)C=C1CC[C@@H]1[C@@H]2CC[C@]2(C)C(=N/O)/C(=C/c3ccncc3)C[C@@H]12
4. N#CC(C(=O)O)C(c1c(Cl)cccc1Cl)C(C#N)C(=O)O (stereo unspecified)

Result:
1: > 100 µM; 2: > 10 µM; 3: > 100 µM; 4: > 100 µM
